LC retention time reference
# Test Protocol: RP, Thermo Scientific Acclaim RSLC 120 C18, 100 × 2.1 mm, 2.2 µm, 30 °C, 0.2 mL/min, estimated dead time 1.1 min; A: 90% water + 10% methanol + 0.01% formic acid + 5 mM ammonium formate, pH 3.61; B: methanol + 0.01% formic acid + 5 mM ammonium formate, pH 3.61; gradient (min/%B) 0/1 1/1 2/39 13/99.9 15/99.9 15.1/1 20.1/1
# Settings: stereoisomer not certain

Compound: CCNc1nc(NCC)nc(SC)n1 [Simetryn]
Unit Annotation: min
LC retention time: 8.14
--
Compound: CC(N)C(=O)c1ccccc1 (configuration not stated) [Cathinone]
Unit Annotation: min
LC retention time: 3.59
--
Compound: CCSC(=O)N1CCCCCC1 [Molinate]
Unit Annotation: min
LC retention time: 9.89
--
Compound: CNC(C)Cc1ccc2c(c1)OCO2 (configuration not stated) [MDMA]
Unit Annotation: min
LC retention time: 4.18
--
Compound: CC1=C(CC(=O)O)c2cc(F)ccc2C1=Cc1ccc(S(C)=O)cc1 (configuration not stated) [Sulindac]
Unit Annotation: min
LC retention time: 8.24
--
Compound: O=C(c1cccc2ccccc12)c1cn(CCCCCF)c2ccccc12 [AM-2201]
Unit Annotation: min
LC retention time: 11.2
--
Compound: CC1CC2C3CC(F)C4=CC(=O)C=CC4(C)C3(F)C(O)CC2(C)C1(O)C(=O)CO (configuration not stated) [Flumethasone]
Unit Annotation: min
LC retention time: 8.28
--
Compound: CCNc1nc(NC(C)CC)nc(OC)n1 (configuration not stated) [Secbumeton]
Unit Annotation: min
LC retention time: 8.79
--
Compound: CC=C1CC(C)C(C)(O)C(=O)OCC2=CCN(C)CCC(OC1=O)C2=O (configuration not stated) [Senkirkine]
Unit Annotation: min
LC retention time: 5.16
--
Compound: CCC1OC(=O)C(C)C(OC2CC(C)(OC)C(O)C(C)O2)C(C)C(OC2OC(C)CC(N(C)C)C2O)C(C)(O)CC(C)C(=NOCOCCOC)C(C)C(O)C1(C)O (configuration not stated) [Roxithromycin]
Unit Annotation: min
LC retention time: 9.23
--
Compound: Nc1nc(N)nc(Cl)n1 [Atrazine-desethyl-desisopropyl]
Unit Annotation: min
LC retention time: 3.03
--
Compound: O=S(=O)(O)c1ccc2nc(-c3ccccc3)[nH]c2c1 [Phenylbenzimidazole sulfonic acid]
Unit Annotation: min
LC retention time: 4.63
--
Compound: ON=Cc1cc[n+](COC[n+]2ccc(C=NO)cc2)cc1 [Obidoxime]
Unit Annotation: min
LC retention time: 3.03
--
Compound: Cn1nnc2ccccc21 [Benzotriazole -1-Methyl]
Unit Annotation: min
LC retention time: 5.11
--
Compound: CC(C)N1CCN(c2ccc(OCC3COC(Cn4cncn4)(c4ccc(Cl)cc4Cl)O3)cc2)CC1 (configuration not stated) [Terconazole]
Unit Annotation: min
LC retention time: 8.2
--
Compound: CCCc1ccc(C(=O)c2cn(CCC)c3ccccc23)c2ccccc12 [JWH-180]
Unit Annotation: min
LC retention time: 12.7
--
Compound: COc1ccccc1OCC(O)CO (configuration not stated) [Guaifenesin]
Unit Annotation: min
LC retention time: 5.11
--
Compound: CCCCCCC(C)(C)c1ccc(C2CC(O)CCC2CCCO)c(O)c1 (configuration not stated) [CP 55-940]
Unit Annotation: min
LC retention time: 12
--
Compound: CCN(N=O)C(C)Cc1cccc(C(F)(F)F)c1 (configuration not stated) [Fenfluramine-n-Nitroso]
Unit Annotation: min
LC retention time: 9.38
--
Compound: NC(N)=NC(=O)c1nc(Cl)c(N)nc1N [Amiloride]
Unit Annotation: min
LC retention time: 3.68
--
Compound: Cc1[nH]c(=O)n(C(C)(C)C)c(=O)c1Cl [Terbacil]
Unit Annotation: min
LC retention time: 7.33
--
Compound: CCOc1ccc(NC(C)=O)cc1 [Phenacetin]
Unit Annotation: min
LC retention time: 5.93
--
Compound: CC12CCC3C4CCC(=O)C=C4CCC3C1CCC2O (configuration not stated) [Nandrolone]
Unit Annotation: min
LC retention time: 9.37
--
Compound: NCC1CCC(C(=O)O)CC1 (configuration not stated) [Tranexamic acid]
Unit Annotation: min
LC retention time: 1.79
--
Compound: NS(=O)(=O)Cc1noc2ccccc12 [Zonisamide]
Unit Annotation: min
LC retention time: 4.53
--
Compound: CC1CCCC(C)N1NC(=O)c1ccc(Cl)c(S(N)(=O)=O)c1 (configuration not stated) [Clopamide]
Unit Annotation: min
LC retention time: 6.01
--
Compound: Cc1nn(C)c(Oc2ccccc2)c1C=NOCc1ccc(C(=O)OC(C)(C)C)cc1 [Fenpyroximate]
Unit Annotation: min
LC retention time: 13.2
--
Compound: NC(=O)C(CCN1CCCCC1)(c1ccccc1)c1ccccc1 [Fenpipramide]
Unit Annotation: min
LC retention time: 5.19
--
Compound: CC(C)C(=O)Nc1ccc([N+](=O)[O-])c(C(F)(F)F)c1 [Flutamide]
Unit Annotation: min
LC retention time: 11.2
--
Compound: CN(C)CCN(Cc1ccccc1)c1ccccn1 [Pyribenzamine (Tripelenamine. Azaron)]
Unit Annotation: min
LC retention time: 5.86
--
Compound: CCCNCC(O)COc1ccccc1C(=O)CCc1ccccc1 (configuration not stated) [Propafenone]
Unit Annotation: min
LC retention time: 7.81
--
Compound: COc1cc(OC)nc(NC(=O)NS(=O)(=O)c2cc(NC=O)ccc2C(=O)N(C)C)n1 [Foramsulfuron]
Unit Annotation: min
LC retention time: 7.54
--
Compound: CC(=O)Oc1ccc2c3c1OC1C(OC(C)=O)C=CC4C(C2)N(C)CCC341 (configuration not stated) [Heroin]
Unit Annotation: min
LC retention time: 4.63
--
Compound: CC(CN(C)C)CN1c2ccccc2S(=O)(=O)c2ccccc21 (configuration not stated) [Oxomemazine]
Unit Annotation: min
LC retention time: 5.34
--
Compound: Nc1nc2c(ncn2CCC(CO)CO)c(=O)[nH]1 [Penciclovir]
Unit Annotation: min
LC retention time: 2.98
--
Compound: Cc1ncc([N+](=O)[O-])n1CCCO [Ternidazole]
Unit Annotation: min
LC retention time: 4.21
--
Compound: CCC(=O)OC1(C(=O)CCl)C(C)CC2C3CCC4=CC(=O)C=CC4(C)C3(F)C(O)CC21C (configuration not stated) [Clobetasol propionate]
Unit Annotation: min
LC retention time: 10.6
